src = patent US20130101549A1

Measured EC50 values are reported for all entries that follow.
# tested-system: T1, human HER2/ErbB2 on cells (human, UniProt P04626 23-1255)
# T1 construct: whole, on cells; also called hHER2/ErbB2; wild type HER2/ErbB
# protocol-summary: flow cytometry on CHO cells expressing human HER2
API: value field is a number in nM; no unit string.

[
  {
    "binder": "BIIB71F10 Fab (Fab, V domains shown, Soluble human Fab; also called Fab 71F10) VH: EVQLLESGGGLVQPGGSLRLSCAASGFTFSSYGMVWVRQAPGKGLEWVSSISSSGGLTWYADSVKGRFTISRDNSKNTLYLQMNSLRAEDTAVYYCASPPGIAVARDYWGQGTLVTVSS VL: DIQMTQSPSSLSASVGDRVTITCRASQGISNYLAWYQQKPGKVPKLLIYAASTLQSGVPSRFSGSGSGTDFTLTISSLQPEDVATYYCQKYNSALLTFGGGTKVEIK",
    "measured-number": 60
  }
]

Let us examine a further case.
Form field: reported EC50 of BIIB65H09 Fab (Fab, V domains shown, Soluble human Fab from a naive phagemid Fab library) VH: EVQLLESGGGLVQPGGSLRLSCAASGFTFSWYSMWWVRQAPGKGLEWVSSIVSSGGQTRYADSVKGRFTISRDNSKNTLYLQMNSLRAEDTAVYYCARVKGYYYYIDVWGKGTTVTVSS VL: DIQMTQSPGTLSLSPGERATLSCRASQSVDSSYLSWYQQKPGQAPRLLIYGASTRATGIPARFSGSGSGTDFTLTVSRLEPEDFAVYYCQQHGYSSRTFGQGTKVEIK 20
